Tested on: PPARg:RXRa IVT, anti-PPARg (NR concentration 270 nM, RXRa partner concentration 90 nM)
Assay: PBM binding z-score (relative to random genomic background probes); higher = stronger binding; sequences stand for … in GC…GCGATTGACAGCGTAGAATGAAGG
// bucketize PBM binding z-score: low: < 1; intermediate: ≥ 1 and < 2; high: ≥ 2

Prompt: Which band does AGAACAAGGGCAATGAGTTGATAGCACGGGTGGC fall in?
Completion: intermediate

Prompt: Try the sequence CGACCTAGGTCAAGGACAGTGAATCTCCGCACGC
Completion: high

Prompt: Try the sequence ACTATTAGTTGACACGAGGGCAACCGATAGGTTG
Completion: intermediate

Prompt: Try the sequence TCGAGTAGGTTAGTCGGAGCATTCAGCCAACATA
Completion: intermediate

Prompt: Try the sequence ATCGAAAGGTCGAATGTGAGTATACCCACCCGAA
Completion: intermediate

Prompt: Try the sequence TCTCGGAGGACACGAAGGTCTGAGCTTTCCAGAG
Completion: low

Prompt: Try the sequence AGTCAAAGTTCACTTGGTAACGTAAGATTCAGCT
Completion: high

Prompt: Try the sequence TCTCGGAGGACACGCAAGGTCAGAGCTCGACATC
Completion: intermediate

Prompt: Try the sequence TAGCCTCGGTCATGGGCCAGTATACCACGCGAAC
Completion: low

Prompt: Try the sequence GGAACGAGGGCAAGTTGATAGGAGAGTTTGATGG
Completion: high

Prompt: Try the sequence CATCAAAGTTCAACTAAGGTAACGTAAAGCACGC
Completion: intermediate

Prompt: Try the sequence TCATATAGATAAATGCTAGGTGAAAGTCCGATCT
Completion: low

###

Test system: LXRa:RXRa (NR concentration 270 nM, RXRa partner concentration 90 nM)
Test: PBM binding z-score (relative to random genomic background probes); higher = stronger binding; sequences stand for … in GC…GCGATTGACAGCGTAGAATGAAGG
// bucketize PBM binding z-score: bottom end (below 0.3), midrange (0.3 to below 2), top end (2 or more)

Prompt: Which band does GCTTGTTGATCAAGGTTAAGAAAGACTAAGCTAA fall in?
Completion: midrange

Prompt: Try the sequence GTACCAAAGTGAATAGGTCGTTGATGAGTAGGCG
Completion: bottom end

Prompt: Try the sequence AGAATGAGGTTAAGATCAGGGTAACAGAATACAT
Completion: top end

Prompt: Try the sequence CAGCCTAGGTCAAGGCCAGTATAGGAGGAACGTT
Completion: top end

Prompt: Try the sequence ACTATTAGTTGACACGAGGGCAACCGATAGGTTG
Completion: midrange

Prompt: Try the sequence GCTGCTAGTTCAGGTTGGTCAGCTAACGGGTACG
Completion: bottom end

Prompt: Try the sequence TCTAGCACGCCAGAGGGTCACTCAAGAGGTACGG
Completion: midrange

Prompt: Try the sequence AGAACGAGGGCAATGACTTGATAGCACGGGTGGC
Completion: midrange

Prompt: Try the sequence ATCGAAAGGTCCTGAGGTGAGTATACAGAAAGGC
Completion: bottom end

Prompt: Try the sequence CCCGAAAGGTCGTGCTCAGGTGAGTATACCAAAC
Completion: top end

Prompt: Try the sequence TCTACAGGGTCAAAGGCCAGAGTACGAATGTCGA
Completion: top end

Prompt: Try the sequence TCTTGTAGATCCAGCAGGTTAAGAAAGCCTGAGT
Completion: bottom end

###

Test system: THRa:RXRa (NR concentration 90 nM, RXRa partner concentration 90 nM)
Assay: PBM binding z-score (relative to random genomic background probes); higher = stronger binding; sequences stand for … in GC…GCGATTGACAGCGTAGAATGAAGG
observable: PBM binding z-score
// return a plain number; no unit text

Prompt: Look at this sequence and give its reported PBM binding z-score. TCTTGTAGATCAAAGGTTGAGAAAGCCGAAGCCT
Completion: 0.142

Prompt: Try the sequence CGTCGAAGGTCAAAGGTCAGTGAAGAGATGACGG
Completion: 4.58

Prompt: Try the sequence ATATGTACGTTAGCTGGGGTCATTCAGACTAGGC
Completion: 4.01

Prompt: Try the sequence CCTTACGGGTCACTAACAGGTTATAGCATTTGGA
Completion: 2.98

Prompt: Try the sequence CAAACTAGATCAAGGTCAAAGTCGGTTTGTGCCA
Completion: 3.88

Prompt: Try the sequence CGTCCAAGGTCAGAGAGCTCAGTGAATGCCGAGT
Completion: 3.14

Prompt: Try the sequence TCTGCTAGGTCAACGATGGACAGCTAATCTGCTA
Completion: 2.86

Prompt: Try the sequence CAAACTAGGACACGAAAGGTCAAAGTCGAATGAC
Completion: 4.08

Prompt: Try the sequence AGAATGAGGTAACCAAAGATCAGGGAAACGCTTG
Completion: 2.05

Prompt: Try the sequence TCTGCTAGGTCAACGCTGGTCAGCTAATCTGCTA
Completion: 3.52

Prompt: Try the sequence TCTAGTTGGTCACGGAGGTCAAACACGACGGGTA
Completion: 3.78

Prompt: Try the sequence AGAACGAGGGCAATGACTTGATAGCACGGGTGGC
Completion: 0.826

###

Test system: RXRa homodimer (NR concentration 180 nM)
Assay: PBM binding z-score (relative to random genomic background probes); higher = stronger binding; sequences stand for … in GC…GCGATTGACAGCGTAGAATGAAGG
I'd appreciate it if you could supply PBM binding z-score values for the items below.
// return a plain number; no unit text

Prompt: Look at this sequence and give its reported PBM binding z-score. ATCTCTAGGTAAGACTCAGTCCAGTGAAGAACGC
Completion: 0.144

Prompt: Try the sequence ACAGACAGGTGAGTGAAGGTAACACAGCTGGACG
Completion: 0.647

Prompt: Try the sequence TCTCGGAGGAGACGAAGGTCAGAGCTTTCCAGAG
Completion: 1.63

Prompt: Try the sequence TTACCAAGGTGAAAGTCGTTGATCCCTCTGTAGA
Completion: 1.2

Prompt: Try the sequence GGAACGAGGGCATTCGACTTGATAGCATGGCGAT
Completion: 0.731

Prompt: Try the sequence CCGACTGGGGCAAAGGTAACCATACTCAGTACGA
Completion: 1.19

Prompt: Try the sequence GCAGCCAGGTGAAACGCAGGTAACTCAGGGTGGC
Completion: 0.157

Prompt: Try the sequence ATCTCTAGATAAAGATAGTTCAGTGAATGCAAAT
Completion: 0.282

Prompt: Try the sequence GCGACTGGGGCATCAGCCGGTTACCATAACTTAA
Completion: -0.543

Prompt: Try the sequence TCTCGGAGGACACGAAGATCAGAGCTTTCCAGAG
Completion: 0.273

Prompt: Try the sequence CTTAGCAGGCCAATCTGGGTCACTCAAGGCTTGA
Completion: 0.782

Prompt: Try the sequence GCGACTGGGGCATCAGGAGGTTACCATAACTTAA
Completion: 0.852

Prompt: Try the sequence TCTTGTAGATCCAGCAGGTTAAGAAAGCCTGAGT
Completion: 0.171

Prompt: Try the sequence TAGCCTAGGTCATTGGGCCAGTAGAGTACGCATC
Completion: 2.79

Prompt: Try the sequence TCATATCGGTAAATGCTAGGTGAAAGTCCGATCT
Completion: 0.375

Prompt: Try the sequence CCTAGCTGGCCAGGGTCACTCAAGCATTTCGCTT
Completion: 3.3

Prompt: Try the sequence CCTATCAGGCCAGGGTCACTCAAGCATTTCGCTT
Completion: 3.65

Prompt: Try the sequence GGACCAAGGTGAATAGGTCGTTGATGAGTAGGCG
Completion: 1.81

Prompt: Try the sequence TCATATAGGTAAAGGTGAGAGTCGAACGATATGA
Completion: 1.64

Prompt: Try the sequence AGTCAAAGCTCATCTAGGTAACGTAAGATATGCT
Completion: 0.198

Prompt: Try the sequence TGTCAAAGTTCAAAGGTAAAGTAAGTATCCACAC
Completion: 7

Prompt: Try the sequence ATATGTCGGTTAGCTGGGGTCATTCAGACTAGGC
Completion: 5.28

Prompt: Try the sequence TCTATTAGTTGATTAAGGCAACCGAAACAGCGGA
Completion: 0.349

Prompt: Try the sequence ATCTCTAGGTAAGACTCAGTTCAGCGAAGAACGC
Completion: 0.4

Prompt: Try the sequence TCTGCTAGGTCAACGATGGTTAGCTAATCTGCTA
Completion: 2.75

Prompt: Try the sequence AGAACGAGGGCACGCTGAGTTGTTAGCAGAGTAG
Completion: 1.55

Prompt: Try the sequence CGAACTAGGTCATCGACAGGACAGTGAATAGTAA
Completion: 2.72

Prompt: Try the sequence GGAACGAGGGCAAGTTGAAAGCAGAGTTTGATGG
Completion: 0.747

Prompt: Try the sequence AGTCAAAGTTCATCTCGGTAACGTAAGATATGCT
Completion: 4.35

Prompt: Try the sequence ATCGAAAGGTCGAGGTGGGTATAGAGAAAGGGAA
Completion: 4.24

Prompt: Try the sequence GATACAGGGTCAGCTAGAGGCCAGAGCATGGAAA
Completion: 4.26

Prompt: Try the sequence CGTCAAAGTGCAACTAAGGTAACGTAAAGCACGC
Completion: 0.815

Prompt: Try the sequence TCGAGTAGGTTAGGGGCATTCGGAATGGCGTCGA
Completion: 0.52

Prompt: Try the sequence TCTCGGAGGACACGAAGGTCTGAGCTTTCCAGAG
Completion: -0.0356

Prompt: Try the sequence TCTTGTAGATAAACAGGAGGTTAAGAAAGATCGA
Completion: 0.929

Prompt: Try the sequence CCTACTGGGCCATTCAGTGGTCATTGATCATATG
Completion: -0.279

Prompt: Try the sequence TCTTGTAGATCAAGCAGGTTAAAAAAGCCTGAGT
Completion: 0.566

Prompt: Try the sequence ATGGAAAGGTCGAGGTGAGTATAGAGAAAGGGAA
Completion: 4.53

Prompt: Try the sequence GCTCGGAGGACAAGGTCAGAGTTTTGTCCGTAGA
Completion: 2.55

Prompt: Try the sequence CTGGAAAGGTCGTGCTCAGGTGAGTATACCAAAC
Completion: 4.95

Prompt: Try the sequence AATACAGGGTCACTAGGCCATAGTAGGTACGAAT
Completion: 5.6

Prompt: Try the sequence TCAGACAGGTGAAGGTAACACAGGTACGCAGTCG
Completion: 1.54

Prompt: Try the sequence TCTGGTTGGTCAAAGGTCACACACTCGAAATGCG
Completion: 8.3

Prompt: Try the sequence GATACAGGGTTAGCTAGAGGCCAGAGTATGGAAA
Completion: 0.857

Prompt: Try the sequence CTCGAAAGGTCGTGCACAGGTGAGTATACCAAAC
Completion: 5.32

Prompt: Try the sequence ATTTCTAGGTAAAAGTTCAGTGAATCCCGAGGAT
Completion: 1.88

Prompt: Try the sequence CCTTCTGGGCCATCAGGTCATTGATATCAACGTT
Completion: 1.46

Prompt: Try the sequence ATCTCTAGGGAACCAAGTTCAGTGAATGCCGAAC
Completion: 0.332

Prompt: Try the sequence GGAACGAGTGCATTCGAGTTGATAGCATGGCGAT
Completion: -0.0218

Prompt: Try the sequence GCGACTGGGGCAAAGCAGGTTACCATGAGGTTGG
Completion: 0.455

Prompt: Try the sequence CGTCCAAGGTCAATGGTAGGTCAGTGAAAGCATT
Completion: 5.41

These entries and their values trace back to the supplement of paper PMC6555819.
